# assay-overview: Selectivity index, ratio of IC50 for african green monkey Vero cells to IC50 for CYP19 (unknown origin)
The entries below are paired with their reported Ratio IC50.

Example results:
molecule	reported-property	readout-value
Cc1ccc(OCc2cn(-c3ccc(S(=O)(=O)NCCc4ccccc4)cc3)nn2)cc1	Ratio IC50	>13.93
COc1ccc(CCNS(=O)(=O)c2ccc(-n3cc(-c4ccccc4)nn3)cc2)cc1OC	Ratio IC50	>23.4
O=S(=O)(NCCc1ccccc1)c1ccc(-n2cc(COc3ccccc3)nn2)cc1	Ratio IC50	>12.24

Which Ratio IC50 reading was recorded for the compound O=Cc1ccc(OCc2cn(-c3ccc(S(=O)(=O)NCCc4ccccc4)cc3)nn2)cc1 ? >13.68

Subsequent entry: COc1cc2c(cc1OC)CN(S(=O)(=O)c1cccc(-n3cc(COc4ccc5ccc(=O)oc5c4)nn3)c1)CC2 >435.09

Subsequent entry: O=S(=O)(NCCc1ccccc1)c1ccc(-n2cc(COc3cccc4ccccc34)nn2)cc1 >30.35

Subsequent entry: O=c1cc(OCc2cn(-c3ccc(S(=O)(=O)NCCc4ccccc4)cc3)nn2)c2ccccc2o1 >55.27

Subsequent entry: COc1ccc(CCNS(=O)(=O)c2ccc(-n3cc(COc4ccc([N+](=O)[O-])cc4)nn3)cc2)cc1OC >34.32

Subsequent entry: Cc1ccccc1OCc1cn(-c2ccc(S(=O)(=O)NCCc3ccccc3)cc2)nn1 >32.79

Subsequent entry: COc1cc2c(cc1OC)CN(S(=O)(=O)c1cccc(-n3cc(COc4cc(=O)oc5ccccc45)nn3)c1)CC2 48

Subsequent entry: O=[N+]([O-])c1ccc(OCc2cn(-c3ccc(S(=O)(=O)NCCc4ccccc4)cc3)nn2)cc1 >35.96

Subsequent entry: O=S(=O)(NCCc1ccccc1)c1ccc(-n2cc(COc3ccc4ccccc4c3)nn2)cc1 >79.37

----------
# target-under-test: Aromatase (Homo sapiens)
# Sequence (P11511 whole entry): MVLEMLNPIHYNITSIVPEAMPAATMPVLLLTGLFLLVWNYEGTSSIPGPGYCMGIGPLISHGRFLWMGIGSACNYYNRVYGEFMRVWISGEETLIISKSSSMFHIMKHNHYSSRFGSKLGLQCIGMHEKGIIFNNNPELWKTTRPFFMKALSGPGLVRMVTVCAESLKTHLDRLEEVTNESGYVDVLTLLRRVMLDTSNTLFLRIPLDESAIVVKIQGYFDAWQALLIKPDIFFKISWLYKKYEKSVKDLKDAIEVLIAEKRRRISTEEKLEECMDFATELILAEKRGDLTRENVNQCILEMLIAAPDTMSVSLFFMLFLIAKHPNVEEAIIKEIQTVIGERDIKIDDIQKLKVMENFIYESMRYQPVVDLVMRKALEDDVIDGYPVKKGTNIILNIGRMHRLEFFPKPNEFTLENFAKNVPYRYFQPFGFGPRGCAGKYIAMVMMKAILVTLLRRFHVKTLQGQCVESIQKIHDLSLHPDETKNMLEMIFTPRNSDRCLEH
pIC50: −log10 of the molar value.
reported-property: pIC50

molecule	target-under-test	pIC50
O=[N+]([O-])c1ccc(OCc2cn(-c3ccc(S(=O)(=O)NCCc4ccccc4)cc3)nn2)cc1	Aromatase (Homo sapiens)	5.54
O=S(=O)(NCCc1ccccc1)c1ccc(-n2cc(COc3ccccc3)nn2)cc1	Aromatase (Homo sapiens)	5.03
O=c1ccc2ccc(OCc3cn(-c4ccc(S(=O)(=O)NCCc5ccccc5)cc4)nn3)cc2o1	Aromatase (Homo sapiens)	< 4.90
O=c1cc(OCc2cn(-c3ccc(S(=O)(=O)N4CCc5ccccc5C4)cc3)nn2)c2ccccc2o1	Aromatase (Homo sapiens)	< 4.90
COc1cc2c(cc1OC)CN(S(=O)(=O)c1cccc(-n3cc(COc4cc(=O)oc5ccccc45)nn3)c1)CC2	Aromatase (Homo sapiens)	5.74

Which pIC50 reading was recorded for the compound COc1cc2c(cc1OC)CN(S(=O)(=O)c1ccc(-n3cc(COc4ccccc4C)nn3)cc1)CC2 ? < 4.90

Subsequent entry: COc1cc2c(cc1OC)CN(S(=O)(=O)c1ccc(-n3cc(COc4cc(C=O)ccc4OC)nn3)cc1)CC2 < 4.90

Subsequent entry: CC(=O)c1ccccc1OCc1cn(-c2ccc(S(=O)(=O)N3CCc4ccccc4C3)cc2)nn1 < 4.90

Subsequent entry: COC(=O)c1ccccc1OCc1cn(-c2ccc(S(=O)(=O)N3CCc4cc(OC)c(OC)cc4C3)cc2)nn1 < 4.90

Subsequent entry: Cc1ccccc1OCc1cn(-c2ccc(S(=O)(=O)NCCc3ccccc3)cc2)nn1 5.47

Subsequent entry: COc1cc2c(cc1OC)CN(S(=O)(=O)c1ccc(-n3cc(COc4ccc([N+](=O)[O-])cc4)nn3)cc1)CC2 < 4.90
